B1: Hairpin Ribozyme (parent)
chain: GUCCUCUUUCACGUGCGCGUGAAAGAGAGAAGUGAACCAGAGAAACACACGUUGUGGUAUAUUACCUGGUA

Variants of: B1
test.summary: self-cleavage, relative activity (ratio to wild type); higher = more cleavage; co-transcriptional
Please use 1 whenever self-cleavage is not below 0.4, and 0 whenever it is.

variant: G1A G17C
group.label: 0

variant: G34A A36U
group.label: 1

variant: A47C A61U
group.label: 0

variant: G56A A61C
group.label: 0

variant: C10G U14C
group.label: 1

variant: U14G A22G
group.label: 1

variant: G25U A49C
group.label: 0
